The origin of these recorded values is paper PMC6099883.

- target_system: OsGID1 with SLR1 (Oryza sativa)
- Sequence (Q6L545 1-354): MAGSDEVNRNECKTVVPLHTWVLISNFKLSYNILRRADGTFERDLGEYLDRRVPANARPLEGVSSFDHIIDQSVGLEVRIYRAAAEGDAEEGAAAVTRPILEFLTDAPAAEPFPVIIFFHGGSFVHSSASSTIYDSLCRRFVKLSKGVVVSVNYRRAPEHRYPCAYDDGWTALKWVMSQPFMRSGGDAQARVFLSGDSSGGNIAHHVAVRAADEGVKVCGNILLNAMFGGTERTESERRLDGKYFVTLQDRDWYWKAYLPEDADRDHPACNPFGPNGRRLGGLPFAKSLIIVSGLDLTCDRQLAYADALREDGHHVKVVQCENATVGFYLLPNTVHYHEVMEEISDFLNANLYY
- Sequence (Q7G7J6 1-625 partner): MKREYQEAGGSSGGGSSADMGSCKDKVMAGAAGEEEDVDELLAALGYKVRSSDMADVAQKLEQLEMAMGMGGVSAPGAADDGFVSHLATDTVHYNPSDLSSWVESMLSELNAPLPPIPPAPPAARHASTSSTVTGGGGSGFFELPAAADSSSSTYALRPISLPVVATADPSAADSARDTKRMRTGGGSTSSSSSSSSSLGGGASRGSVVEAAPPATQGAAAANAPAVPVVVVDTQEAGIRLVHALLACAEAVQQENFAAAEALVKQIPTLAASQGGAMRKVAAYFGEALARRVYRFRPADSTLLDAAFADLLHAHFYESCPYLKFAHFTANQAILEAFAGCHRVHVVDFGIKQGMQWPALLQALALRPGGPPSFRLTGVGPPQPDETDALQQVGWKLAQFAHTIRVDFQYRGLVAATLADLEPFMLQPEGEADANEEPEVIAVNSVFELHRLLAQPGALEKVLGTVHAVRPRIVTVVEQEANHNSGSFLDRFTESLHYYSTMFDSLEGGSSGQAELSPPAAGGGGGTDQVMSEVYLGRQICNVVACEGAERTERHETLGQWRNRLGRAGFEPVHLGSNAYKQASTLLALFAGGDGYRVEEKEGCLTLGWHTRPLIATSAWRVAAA
pKd: −log10 of the molar value.
metric_name: pKd

• C=C1C[C@]23C[C@@]1(O)CC[C@H]2[C@@]12CC[C@H](O)[C@@](C)(C(=O)O1)[C@H]2[C@@H]3C(=O)O [GA1] = 6.52
• C=C1C[C@]23C[C@@]1(O)CC[C@H]2[C@@]12C=C[C@H](O)[C@@](C)(C(=O)O1)[C@H]2[C@@H]3C(=O)O [GA3] = 6.53
